Measured IC50 at 1 h by item
- Protocol Text: Hemolytic activity against human RBC incubated for 1 hr by microplate reader analysis
- Assay type: toxicity, cell-based, Erythrocyte
- Reported Conditions: red blood cells (erythrocytes)

{"Substance": "H-KKKKLKKILKKLFQFINQLDNQLQDFKQNK-OH", "IC50 at 1 h": "> 50 µM"}
{"Substance": "H-KKKKKLKKILKKLFQFINQLDNQLQDIKKKKK-OH", "IC50 at 1 h": "> 50 µM"}
{"Substance": "H-KKKKLKKILKKLWQWINQLDNQLQDIKQNK-NH2", "IC50 at 1 h": "> 50 µM"}
{"Substance": "H-KKKKLKKILKKLFQFINQLDNQLQDIKQNK-NH2", "IC50 at 1 h": "> 50 µM"}
{"Substance": "H-KKKKLKKILKKLFQFINQLDNQLQDIKKKK-NH2", "IC50 at 1 h": "> 50 µM"}
{"Substance": "H-KKKKLKKILKKLFQFIDQLINDLQNIKKKK-NH2", "IC50 at 1 h": "> 50 µM"}
{"Substance": "H-KKKKLKKILKKLFQFINQLDNQLQDIKQNK-OH", "IC50 at 1 h": "> 50 µM"}
{"Substance": "H-KKKKLRRILRRLFQFINQLDNQLQDIKQNK-NH2", "IC50 at 1 h": "49 µM"}
{"Substance": "H-RRRRLKKILKKLFQFINQLDNQLQDIRQNR-NH2", "IC50 at 1 h": "6.9 µM"}
